Sourced from paper PMC9851200

- System: SH-SY5Y cells
- conditions: PKIS2 primary screening, DQ Red BSA spot count
Output criterion met for records whose DQ Spot is lower than 90, criterion not met for records at or above 90.

| molecule | tested_system | label_class |
| --- | --- | --- |
| COc1ccc(Nc2nccc(N3CCC(NC(=O)Nc4ccc5c(c4)OCO5)C3)n2)cc1 (centres unmarked) [GSK1379745] | SH-SY5Y cells | criterion met |

Prompt line: Hello, is DQ Spot of the following molecule strictly smaller than 90? Cl.Fc1ccccc1COc1ccc(Nc2ncnc3ccc(-c4nnc(C(F)(F)F)o4)cc23)cc1Cl [UNC10225422A]
Response line: criterion not met

Prompt line: What do you have for O=C(c1ccc(-c2cc(-c3c[nH]nc3-c3ccccn3)ccn2)cc1)N1CCOCC1 [UNC10225421A] ?
Response line: criterion not met

Prompt line: What do you have for CCCc1ccc(S(=O)(=O)NC2CCN(c3ccnc(Nc4ccc(OC)cc4)n3)C2)cc1 (centres unmarked) [GSK1379737] ?
Response line: criterion not met

====

- Test system: SH-SY5Y cells
- measurement_description: Nuclear count from microscopy images (cellular growth and toxicity); further: reference of the scale not given here
- conditions: PKIS2 primary screening
endpoint_name: Nuclear Count
Lab note: jot down the number only; don't add units.

Look over these answered cases.
| molecule | value_measured |
| --- | --- |
| CN1C(=O)C(Nc2ccc(Cl)c(C(=O)O)c2)=C(c2ccc(Cl)cc2)C1=O [UNC10225406A] | 91.26 |
| O=C(NCC1CC1)c1ccc(-c2cc(C(=O)NC3CC3)ccc2F)cc1 [UNC10224986A] | 97.72 |
| c1ccc(-c2n[nH]cc2Nc2ccnc3ccccc23)nc1 [UNC10225048A] | 152.96 |
| COC(=O)Nc1nc2ccc(Oc3ccc(NC(=O)Nc4cccc(SC)c4)cc3)cc2[nH]1 | 71.32 |
| CC(C)(C)OC(=O)NC1CCCN(c2cc(-c3ccc4c(N)n[nH]c4c3)nc(N)n2)C1 (centres unmarked) | 128.62 |
| Cc1csc(-c2nc(Nc3ccncc3)c3ccccc3n2)n1 | 81.77 |

Prompt line: Any idea what its Nuclear Count is? The molecule is CC(=O)c1cccc(NC(=O)NC2CCN(c3ccnc(Nc4ccc(F)cc4)n3)C2)c1 (centres unmarked)
Response line: 98.98

Prompt line: What do you have for Cc1occc1-c1nc(N)c(OC[C@@H](N)Cc2c[nH]c3ccccc23)cc1-c1cc2c(C)n[nH]c2cn1 [UNC10225217A] ?
Response line: 82.67

====

Listed here are molecules together with their documented TFE3 %.
- Test system: endogenous TFE3
- measurement_description: TFE3 nuclear translocation, immunocytochemistry high-content imaging
- Format: cell-based
- conditions: PKIS2 primary screening
Give a bare numeral; the unit % is implied.

| molecule | scale_unit | TFE3 % |
| --- | --- | --- |
| Cc1cccc(Nc2nc(N[C@H]3CCNC3)ncc2C(N)=O)c1.Cl [UNC10225356A] | % | 8.51 |
| COc1ccc(Nc2nccc(NCCNC(=O)Nc3ccccc3F)n2)cc1 [GSK1379901] | % | 12.56 |
| CCn1c(-c2ccccn2)nc2cnccc21 [UNC10225156A] | % | 11.71 |

Prompt line: Any idea what its TFE3 % is? The molecule is Cc1c(Cn2c(C)c(C)n3c(=O)cc(N4CCOCC4)nc23)cccc1C(F)(F)F [UNC10225225A]
Response line: 8.46

Prompt line: What do you have for CN1C(=O)C(Nc2cc(Cl)c(O)c(Cl)c2)=C(c2ccc(Cl)cc2)C1=O [UNC10225212A] ?
Response line: 7.81

Prompt line: What do you have for Cc1cccc2c(-c3ccncn3)c(-c3ccc(F)cc3)nn12 [UNC10225097A] ?
Response line: 7.36

Prompt line: What do you have for FC(F)(F)c1ccc(-c2nn3ncccc3c2-c2ccnc(Nc3cccc(C(F)(F)F)c3)n2)cc1 [UNC10225138A] ?
Response line: 11.01

Prompt line: What do you have for CN(C)c1ncnc2nc[nH]c12 [UNC10243858A] ?
Response line: 16.40

Prompt line: What do you have for COc1ccc(-c2nc3n(c2-c2ccncc2)CCC3)cc1 [UNC10225334B] ?
Response line: 11.14

Prompt line: What do you have for COc1ccc(Nc2nccc(N3CCC(NC(=O)Nc4cccc(OC)c4)C3)n2)cc1 (stereo not drawn) [GSK1379742] ?
Response line: 16.87

Prompt line: What do you have for Cc1c(Cn2ccn3c(=O)cc(N4CCOCC4)nc23)cccc1C(F)(F)F [UNC10243861A] ?
Response line: 6.09
